System: Hs-578T
Test: NCI tumour cell line growth inhibition, 48 h
The source made the active and inactive calls. Rule as the data show it: active = GI50 up to about 1.1 µM and inactive = higher.
endpoint-name: GI50

{"compound": "CC(C)CC(Nc1c(O)ccc2ccccc12)C(=O)O (stereo unspecified)", "meas-value": "21.6 µM (inactive)"}
{"compound": "CC1C(C)(C)C23CC12C1(OCCO1)C3Br (stereo unspecified)", "meas-value": "> 100 µM (inactive)"}
{"compound": "COc1ccc(C(O)/C(=N/N)c2nc3ccc(Cl)cc3nc2O)cc1 (stereo unspecified)", "meas-value": "> 100 µM (inactive)"}
{"compound": "CN1CC[C@]2(c3cccc(O)c3)CC(=O)/C(=C/c3ccc(Cl)c(Cl)c3)[C@@H]1C2", "meas-value": "3.05 µM (inactive)"}
{"compound": "CCCC/C=C/C/C=C/CCCCCCCCC(=O)OCC1CCCN2CCCCC12 (stereo unspecified)", "meas-value": "> 100 µM (inactive)"}
{"compound": "C#C[C@]1(O)CC[C@H]2[C@@H]3CCC4=C/C(=N/NC(=O)c5cccc6c(=O)c7ccccc7[nH]c56)CCC4[C@H]3CC[C@@]21C (stereo partly specified)", "meas-value": "32.1 µM (inactive)"}
{"compound": "N#C/C(N)=C(C#N)/N=C/NCc1ccccc1", "meas-value": "> 100 µM (inactive)"}
{"compound": "C[C@]12CC[C@@H]3c4ccc(O)cc4CC[C@H]3[C@@H]1C/C(=C\\c1ccncc1)C2=O", "meas-value": "14.2 µM (inactive)"}
{"compound": "Clc1n[nH]c2ccccc12", "meas-value": "> 100 µM (inactive)"}
{"compound": "c1ccc(C(NC2=NCCO2)C2CC2)cc1 (stereo unspecified)", "meas-value": "> 100 µM (inactive)"}
{"compound": "Cn1c(CCC2(C)Cc3ccccc3C(=O)O2)cc2ccccc2c1=O (stereo unspecified)", "meas-value": "37.7 µM (inactive)"}

---

Test system: SK-OV-3
Experiment: NCI tumour cell line growth inhibition, 48 h
Active and inactive are the calls of the source. No stated cut-off is given here; in the data, active = GI50 up to about 1.1 µM and inactive = higher.
Labels: active, inactive

{"molecule": "CCCCCCCC(=O)N1C2CC3CCC2(CS1(=O)=O)C3(C)C (stereo unspecified)", "group": "inactive"}
{"molecule": "CC(=O)OCC(OC(C)=O)C1C[C@H]2O[C@@H]3[C@H](C[C@H]2O1)O[C@@]1(C[C@@H]3C)C[C@H](C)[C@@H]2O[C@]3(C[C@@H]2O1)C[C@H]1O[C@H]2[C@H](C)[C@H]4OC(=O)CC5CC[C@H]6OC7[C@H]8O[C@]9(CC[C@H]%10CC(O)(CO)[C@H](CC[C@H]%11C[C@@H](C)C(O)(CO)C(C[C@@H]4O[C@H]2C[C@H]1O3)O%11)O%10)CC8O[C@@H]7[C@@H](O9)[C@H]6O5 (stereo partly specified)", "group": "active"}
{"molecule": "COC(C(O)CO)C(O)C(O)C(=O)NNc1ccccc1 (stereo unspecified)", "group": "inactive"}
{"molecule": "O=S(=O)(O)c1ccc2c(/N=N/c3ccccc3)c(O)ccc2c1", "group": "inactive"}
{"molecule": "NC1=NCC(CN2CCOCC2)O1 (stereo unspecified)", "group": "inactive"}
{"molecule": "COCP1(=S)OC(C)CCN1C(C)C (stereo unspecified)", "group": "inactive"}
{"molecule": "O=c1oc2ccccc2c2nc3ccccc3cc12", "group": "inactive"}
{"molecule": "O=C(/C=C/c1ccc(OCc2cccc(Cl)c2)cc1)NO", "group": "inactive"}
{"molecule": "NC1CC(=O)c2cc(Br)sc21 (stereo unspecified)", "group": "inactive"}
{"molecule": "Cc1ccc([N+](=O)[O-])cc1S(=O)(=O)Nc1ccc(C2=NN(S(=O)(=O)c3cc([N+](=O)[O-])ccc3C)C(c3ccco3)C2)cc1 (stereo unspecified)", "group": "inactive"}
{"molecule": "COc1ccc(-c2c(/C=N/OCC(=O)O)c3sc4ccccc4n3c2/C=N/OCC(=O)O)cc1", "group": "inactive"}
